I'd be grateful if you could share measured TGI for these entries.
Tested on: UACC-257 melanoma
Test: NCI tumour cell line growth inhibition, 48 h

Consider the worked cases shown below.
Noted for COc1cc(C2C3=C(COC3=O)Nc3cc4c(cc32)OCO4)cc2c1OCO2 (stereo not drawn) : its TGI reads > 100 µM

Noted for CCCCc1c2c(nc3c1CC/C(=C\c1ccc([N+](=O)[O-])cc1)C3=O)CCCC2 : its TGI reads 4.6 µM

Noted for CC(C)(SCc1ccccc1)C(N)C(=O)O (stereo not drawn) : its TGI reads > 100 µM

Noted for Cc1cccc(C(=O)O)c1CC1NCCC2c3ccccc3NC12 (stereo not drawn) : its TGI reads > 100 µM

Hello, I would appreciate it if you could give TGI for each entry below.
1. COc1ccc(N(C(=O)NCCO)c2ccccc2)cc1
2. COc1ccc(/C=C2\CN(C)CC3C2=NN(c2ccccc2)C3c2ccc(OC)cc2)cc1 (stereo not drawn)
3. CC(=O)OC1[C@H](n2ccnc2)C[C@H]2[C@@H]3CC=C4CC(N5CCCC5)CC[C@]4(C)[C@H]3CC[C@]12C (stereo partly drawn)
4. O=C1C=C2CC[C@H]3[C@@H]4CC[C@H](Oc5c6ccccc6nc6ccccc56)[C@H]4CC[C@@H]3[C@H]2CC1
5. Cc1cc2c(=O)[nH]c(N)nc2nc1C
6. C=CCn1c(-c2ccc(Cl)cc2Cl)csc1=Nc1c(C)n(C)n(-c2ccccc2)c1=O
7. Cc1cnc(SCCN2CCN(C)CC2)nc1-c1cc2ccccc2s1

1: > 100 µM; 2: > 100 µM; 3: 55.3 µM; 4: > 100 µM; 5: > 100 µM; 6: 19.2 µM; 7: 23.5 µM

Hello, I would appreciate it if you could give TGI for each entry below.
1. CCCCCSC1C2C(=O)C(Br)=CC13CCNc1c(O)c4c5c(c13)=[N+]2CCC=5C=N4 (stereo not drawn)
2. O=C(CCc1ccc(O)cc1)NCCCNC(=O)CCc1ccc(O)cc1
3. CC(C)(C)OC(=O)NCCCCCCCCCCn1c2c(c3ccccc3c1=O)C(=O)c1ccccc1-2
4. O=C1CCC2(c3ccccc3)Nc3ccc(Cl)cc3N12 (stereo not drawn)
5. CC(=O)OC1[C@@H](OC(C)=O)CN(OCc2ccccc2)C[C@H]1OC(C)=O (stereo partly drawn)
6. COC(=O)/C(=C\c1c(-c2ccccc2)[nH]c2ccccc12)S(C)(=O)=O
7. Cc1nc2ccccc2n1Cc1nnc2n1N=C(c1ccccc1)CS2
8. Nc1ncnc2nn(C3OC(CO)C(O)C3O)nc12 (stereo not drawn)

1. 1.2 µM
2. > 100 µM
3. > 100 µM
4. > 100 µM
5. > 100 µM
6. 25.9 µM
7. 65.3 µM
8. > 87.1 µM

Hello, I would appreciate it if you could give TGI for each entry below.
1. Cc1ccc(S(=O)(=O)SCc2ccccc2)cc1
2. CNCCCn1c2c(c3ccc(F)cc3c1=O)C(=O)c1cc(OC)cnc1-2
3. CCCCCCCCCCCCCCCCOc1ccc(/C=C/C2=[N+](CCCl)CCO2)cc1
4. Cc1nc2cccc([N+](=O)[O-])c2n1CCCN(C)C

1. > 94.2 µM
2. 1.9 µM
3. > 100 µM
4. > 100 µM
